Record form. Attribute: protein stability index. Fill in for each entry.
B1: KLHDC10 (parent)
chain: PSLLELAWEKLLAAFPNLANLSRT

Variants of: B1
Assay: protein stability index of a GFP-peptide fusion (GPS, HEK-293T) (PSI 1-6); higher = more stable;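 further: lentivirally expressed fusions sorted by FACS into six bins by GFP to DsRed ratio, PSI derived from sequencing read proportions per bin multiplied by bin number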
Details: c terminus: a fixed tail appended
Numbers only.

Answered examples (4):
{"mutant_name": "A14F", "attribute_measured": "protein stability index", "measurement": 2.82}
{"mutant_name": "S2D", "attribute_measured": "protein stability index", "measurement": 2.67}
{"mutant_name": "P1R", "attribute_measured": "protein stability index", "measurement": 2.12}
{"mutant_name": "E9K", "attribute_measured": "protein stability index", "measurement": 1.97}

**Q:** Item A7V has what recorded protein stability index?
**A:** 2.22
